Reference for the values: ChEMBL document CHEMBL1133074

experimental-system: 2-5A-dependent ribonuclease (Homo sapiens, UniProt Q05823)
Sequence (Q05823 whole entry): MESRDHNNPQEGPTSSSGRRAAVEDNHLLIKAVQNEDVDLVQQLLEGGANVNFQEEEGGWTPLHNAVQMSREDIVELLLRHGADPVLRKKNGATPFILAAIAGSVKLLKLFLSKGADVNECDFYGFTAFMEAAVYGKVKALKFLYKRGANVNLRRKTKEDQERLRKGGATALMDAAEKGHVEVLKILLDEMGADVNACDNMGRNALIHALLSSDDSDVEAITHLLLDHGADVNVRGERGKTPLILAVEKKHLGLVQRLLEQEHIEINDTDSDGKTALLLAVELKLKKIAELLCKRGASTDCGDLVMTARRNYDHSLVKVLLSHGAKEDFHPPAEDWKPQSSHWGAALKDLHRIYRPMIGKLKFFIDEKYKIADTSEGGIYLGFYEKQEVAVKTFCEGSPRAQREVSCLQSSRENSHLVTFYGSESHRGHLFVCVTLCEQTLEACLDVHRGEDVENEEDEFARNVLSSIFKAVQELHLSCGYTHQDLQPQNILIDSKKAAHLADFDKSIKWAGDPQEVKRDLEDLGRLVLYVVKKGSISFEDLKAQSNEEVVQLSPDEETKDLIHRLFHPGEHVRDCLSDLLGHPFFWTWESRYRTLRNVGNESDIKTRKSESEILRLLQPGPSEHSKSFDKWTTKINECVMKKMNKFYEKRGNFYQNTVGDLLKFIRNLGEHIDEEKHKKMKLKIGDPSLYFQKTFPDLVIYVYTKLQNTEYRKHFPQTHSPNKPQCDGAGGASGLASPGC
test-method-notes: Compound was tested for its binding ability, by displacement of p(A2'p)3A3'[32p]p5'Cp from recombinant human ribonuclease L
observation-type: pIC50
Here pIC50 is given on a logarithmic scale as minus log10 of the concentration in mol/L.

Below, each entry is followed by its recorded pIC50 result.
[
  {
    "smiles-representation": "Cc1nc(N)c2ncn([C@@H]3O[C@H](COP(=O)(O)O[C@@H]4[C@H](O)[C@@H](COP(=O)(O)O[C@@H]5[C@H](O)[C@@H](COP(=O)(O)OP(=O)(O)OP(=O)(O)O)O[C@H]5n5cnc6c(N)ncnc65)O[C@H]4n4cnc5c(N)ncnc54)[C@@H](O)[C@H]3O)c2n1",
    "observation-type": "pIC50",
    "number": 9.14
  },
  {
    "smiles-representation": "Cc1nc(N)c2ncn([C@@H]3O[C@H](COP(=O)(O)O[C@@H]4[C@H](O)[C@@H](COP(=O)(O)O[C@@H]5[C@H](O)[C@@H](COP(=O)(O)O)O[C@H]5n5cnc6c(N)ncnc65)O[C@H]4n4cnc5c(N)ncnc54)[C@@H](O)[C@H]3O)c2n1",
    "observation-type": "pIC50",
    "number": 8.59
  },
  {
    "smiles-representation": "Cc1nc(N)c2ncn([C@@H]3O[C@H](COP(=O)(O)OP(=O)(O)OP(=O)(O)O)[C@@H](O)[C@H]3OP(=O)(O)OC[C@H]3O[C@@H](n4cnc5c(N)ncnc54)[C@H](OP(=O)(O)OC[C@H]4O[C@@H](n5cnc6c(N)ncnc65)[C@H](O)[C@@H]4O)[C@@H]3O)c2n1",
    "observation-type": "pIC50",
    "number": 7.62
  },
  {
    "smiles-representation": "Cc1nc(N)c2ncn([C@@H]3O[C@H](COP(=O)(O)O[C@@H]4[C@H](O)[C@@H](COP(=O)(O)O[C@@H]5[C@H](O)[C@@H](COP(=O)(O)O)O[C@H]5n5cnc6c(N)nc(C)nc65)O[C@H]4n4cnc5c(N)nc(C)nc54)[C@@H](O)[C@H]3O)c2n1",
    "observation-type": "pIC50",
    "number": 5.97
  },
  {
    "smiles-representation": "Cc1nc(N)c2ncn([C@@H]3O[C@H](COP(=O)(O)O[C@@H]4[C@H](O)[C@@H](COP(=O)(O)O[C@@H]5[C@H](O)[C@@H](COP(=O)(O)OP(=O)(O)OP(=O)(O)O)O[C@H]5n5cnc6c(N)nc(C)nc65)O[C@H]4n4cnc5c(N)nc(C)nc54)[C@@H](O)[C@H]3O)c2n1",
    "observation-type": "pIC50",
    "number": 6.98
  }
]

Query: Item Cc1nc(N)c2ncn([C@@H]3O[C@H](COP(=O)(O)O)[C@@H](O)[C@H]3OP(=O)(O)OC[C@H]3O[C@@H](n4cnc5c(N)ncnc54)[C@H](OP(=O)(O)OC[C@H]4O[C@@H](n5cnc6c(N)ncnc65)[C@H](O)[C@@H]4O)[C@@H]3O)c2n1 has what recorded pIC50?
Response: 7.24

* * *

experimental-system: 2-5A-dependent ribonuclease (Homo sapiens)
test-method-notes: Activation of purified recombinant human Ribonuclease L by the compound was measured as degradation of poly (U) 3'[32P]p5'C3'p
Quick reference for EC50 among some molecules
Your answer is read as nM, so omit the unit and give the number.

[
  {
    "smiles-representation": "Cc1nc(N)c2ncn([C@@H]3O[C@H](COP(=O)(O)O[C@@H]4[C@H](O)[C@@H](COP(=O)(O)O[C@@H]5[C@H](O)[C@@H](COP(=O)(O)OP(=O)(O)OP(=O)(O)O)O[C@H]5n5cnc6c(N)nc(C)nc65)O[C@H]4n4cnc5c(N)nc(C)nc54)[C@@H](O)[C@H]3O)c2n1",
    "experimental-system": "2-5A-dependent ribonuclease (Homo sapiens)",
    "observation-type": "EC50",
    "number": 4.6
  }
]

Query: Item Cc1nc(N)c2ncn([C@@H]3O[C@H](COP(=O)(O)O[C@@H]4[C@H](O)[C@@H](COP(=O)(O)O[C@@H]5[C@H](O)[C@@H](COP(=O)(O)OP(=O)(O)OP(=O)(O)O)O[C@H]5n5cnc6c(N)ncnc65)O[C@H]4n4cnc5c(N)ncnc54)[C@@H](O)[C@H]3O)c2n1 has what recorded EC50?
Response: 0.24

Query: Item Cc1nc(N)c2ncn([C@@H]3O[C@H](COP(=O)(O)O)[C@@H](O)[C@H]3OP(=O)(O)OC[C@H]3O[C@@H](n4cnc5c(N)ncnc54)[C@H](OP(=O)(O)OC[C@H]4O[C@@H](n5cnc6c(N)ncnc65)[C@H](O)[C@@H]4O)[C@@H]3O)c2n1 has what recorded EC50?
Response: 0.84

Query: Item Cc1nc(N)c2ncn([C@@H]3O[C@H](COP(=O)(O)O[C@@H]4[C@H](O)[C@@H](COP(=O)(O)O[C@@H]5[C@H](O)[C@@H](COP(=O)(O)O)O[C@H]5n5cnc6c(N)nc(C)nc65)O[C@H]4n4cnc5c(N)nc(C)nc54)[C@@H](O)[C@H]3O)c2n1 has what recorded EC50?
Response: 16

Query: Item Cc1nc(N)c2ncn([C@@H]3O[C@H](COP(=O)(O)OP(=O)(O)OP(=O)(O)O)[C@@H](O)[C@H]3OP(=O)(O)OC[C@H]3O[C@@H](n4cnc5c(N)ncnc54)[C@H](OP(=O)(O)OC[C@H]4O[C@@H](n5cnc6c(N)ncnc65)[C@H](O)[C@@H]4O)[C@@H]3O)c2n1 has what recorded EC50?
Response: 0.68

Query: Item Cc1nc(N)c2ncn([C@@H]3O[C@H](COP(=O)(O)O[C@@H]4[C@H](O)[C@@H](COP(=O)(O)O[C@@H]5[C@H](O)[C@@H](COP(=O)(O)O)O[C@H]5n5cnc6c(N)ncnc65)O[C@H]4n4cnc5c(N)ncnc54)[C@@H](O)[C@H]3O)c2n1 has what recorded EC50?
Response: 0.13

* * *

test-method-notes: Relative concentration required to displace 50% of the p(A2'p)3A3'[32p]p5'Cp
Returns: string. Value is class 1 if measured Crel is below 20, and class 0 if it is greater than or equal to it.

[
  {
    "smiles-representation": "Nc1ncnc2c1ncn2[C@@H]1O[C@H](COP(=O)(O)O[C@@H]2[C@H](O)[C@@H](COP(=O)(O)O[C@@H]3[C@H](O)[C@@H](COP(=O)(O)O)O[C@H]3n3cnc4c(N)ncnc43)O[C@H]2n2cnc3c(N)ncnc32)[C@@H](O)[C@H]1O",
    "group": "class 1"
  },
  {
    "smiles-representation": "Cc1nc(N)c2ncn([C@@H]3O[C@H](COP(=O)(O)OP(=O)(O)OP(=O)(O)O)[C@@H](O)[C@H]3OP(=O)(O)OC[C@H]3O[C@@H](n4cnc5c(N)ncnc54)[C@H](OP(=O)(O)OC[C@H]4O[C@@H](n5cnc6c(N)ncnc65)[C@H](O)[C@@H]4O)[C@@H]3O)c2n1",
    "group": "class 1"
  },
  {
    "smiles-representation": "Cc1nc(N)c2ncn([C@@H]3O[C@H](COP(=O)(O)O[C@@H]4[C@H](O)[C@@H](COP(=O)(O)O[C@@H]5[C@H](O)[C@@H](COP(=O)(O)OP(=O)(O)OP(=O)(O)O)O[C@H]5n5cnc6c(N)nc(C)nc65)O[C@H]4n4cnc5c(N)nc(C)nc54)[C@@H](O)[C@H]3O)c2n1",
    "group": "class 1"
  },
  {
    "smiles-representation": "Cc1nc(N)c2ncn([C@@H]3O[C@H](COP(=O)(O)O[C@@H]4[C@H](O)[C@@H](COP(=O)(O)O[C@@H]5[C@H](O)[C@@H](COP(=O)(O)OP(=O)(O)OP(=O)(O)O)O[C@H]5n5cnc6c(N)ncnc65)O[C@H]4n4cnc5c(N)ncnc54)[C@@H](O)[C@H]3O)c2n1",
    "group": "class 1"
  },
  {
    "smiles-representation": "Cc1nc(N)c2ncn([C@@H]3O[C@H](COP(=O)(O)O[C@@H]4[C@H](O)[C@@H](COP(=O)(O)O[C@@H]5[C@H](O)[C@@H](COP(=O)(O)O)O[C@H]5n5cnc6c(N)nc(C)nc65)O[C@H]4n4cnc5c(N)nc(C)nc54)[C@@H](O)[C@H]3O)c2n1",
    "group": "class 0"
  }
]

Query: State whether 20 exceeds Crel recorded for Cc1nc(N)c2ncn([C@@H]3O[C@H](COP(=O)(O)O)[C@@H](O)[C@H]3OP(=O)(O)OC[C@H]3O[C@@H](n4cnc5c(N)ncnc54)[C@H](OP(=O)(O)OC[C@H]4O[C@@H](n5cnc6c(N)ncnc65)[C@H](O)[C@@H]4O)[C@@H]3O)c2n1 .
Response: class 1
